- SYSTEM_TESTED: HCV polymerase (Hepatitis C virus genotype 1b)
- Construct: a region encoding NS5B (J Virol 1991 March, 65(3), 1105-13, 544 amino acids after deletion of 47 amino acids on the C-terminal); 6xHis (C); made in house; host or cells: Escherichia coli
- Sequence (P26663 2420-2963): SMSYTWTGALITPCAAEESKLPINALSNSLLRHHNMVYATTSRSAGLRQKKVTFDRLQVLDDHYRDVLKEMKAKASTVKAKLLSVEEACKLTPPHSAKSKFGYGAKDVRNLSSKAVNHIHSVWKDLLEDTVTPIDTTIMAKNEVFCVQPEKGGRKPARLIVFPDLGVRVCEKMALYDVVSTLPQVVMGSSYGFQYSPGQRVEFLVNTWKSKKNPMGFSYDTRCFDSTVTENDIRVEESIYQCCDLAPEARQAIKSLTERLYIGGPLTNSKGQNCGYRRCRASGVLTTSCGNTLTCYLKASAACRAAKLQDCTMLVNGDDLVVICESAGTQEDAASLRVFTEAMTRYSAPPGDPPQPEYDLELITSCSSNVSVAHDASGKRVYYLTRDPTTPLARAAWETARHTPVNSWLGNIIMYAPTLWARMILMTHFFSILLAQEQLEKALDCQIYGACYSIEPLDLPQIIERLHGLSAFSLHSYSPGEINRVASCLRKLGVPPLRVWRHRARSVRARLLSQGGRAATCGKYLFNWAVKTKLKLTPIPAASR
- PROCEDURE_DETAILS: biochemical
- Parameters: species or system HCV BK strain
pIC50: −log10 of the molar value. Counter-ions that a name gives are not always drawn.
# key: entry, value: pIC50
REPORTED_ENDPOINT: pIC50

| COMPOUND | SYSTEM_TESTED | RESULT |
| --- | --- | --- |
| O=C(O)c1ccc2c(C3CCCCC3)c3n(c2c1)CCOc1c-3cccc1N(CC(=O)N1CCOCC1)CC(=O)N1CCOCC1 [Example 2-359] | HCV polymerase (Hepatitis C virus genotype 1b) | > 7.00 |
| O=C(O)c1ccc2c(C3CCCCC3)c3n(c2c1)CCN(CCN1CCCCCC1)c1cc(F)ccc1-3 [Example 1-234, dihydrochloride] | HCV polymerase (Hepatitis C virus genotype 1b) | > 7.00 |
| COc1ccc2c(c1)N(CCN1CCCOCC1)CCn1c-2c(C2CCCCC2)c2ccc(C(=O)O)cc21 [Example 1-510, dihydrochloride] | HCV polymerase (Hepatitis C virus genotype 1b) | > 7.00 |
